Each entry below lists one item and its recorded TGI value.
Tested on: NCI-H460 lung
Assay: NCI tumour cell line growth inhibition, 48 h
measure_name: TGI

                                   molecule         system  observed_measurement
0  COC(=O)C1C(=O)CC(C)(O)C(C(=O)OC)C1c1ccc(N(C)C)cc1 (centres undefined)  NCI-H460 lung              > 100 µM
1   C=C(C)[C@@H]1CCc2c(O)c(O)c(=O)cc(C)c2C1  NCI-H460 lung               3.54 µM
2  CC(C)OP(=O)(OC(C)C)C(C(C)C)N(C)C(N)=NC#N (centres undefined)  NCI-H460 lung              > 100 µM
3  Cc1cc(Cl)cc2c1NC(=O)C2(O)CC(=O)c1ccc(Br)cc1 (centres undefined)  NCI-H460 lung              > 100 µM

----------
Measured TGI, listed per entry for reference.
System: UO-31 renal
Experiment: NCI tumour cell line growth inhibition, 48 h
Where a SMILES comes first, the peptide text is derived from it. The star is where a group is joined. Boc = CC(C)(C)OC(=O)*

compound	TGI
NC(N)=NC(N)=Nc1ccc(C(=O)O)cc1	> 100 µM
CN(C)CCN1C(=O)c2cccc3c(/C=C/CN4C(=O)c5cccc6cccc(c56)C4=O)ccc(c23)C1=O	48.2 µM
CC12OC(C(=O)C13CC3)C1C(=O)c3c(O)ccc(O)c3C(=O)C12 (stereo not given)	55.6 µM
Cc1cc(C)nc(NS(=O)(=O)c2ccc(NNc3c4ccccc4nc4c(C(=O)Nc5ccc(S(=O)(=O)Nc6cc(C)on6)cc5)cccc34)cc2)n1	> 100 µM
COc1ccc(C2NN=C3c4ccccc4CCC32)cc1 (stereo not given)	> 100 µM
COc1ccc(CSC2=C(C#N)C(=O)NC3(CCCCC3)S2)cc1	> 100 µM
C=C(CN(CC)CC)C1(c2ccccc2)CC2(CCCC2)C(=O)O1 (stereo not given)	> 100 µM
O=S(=O)(/N=S(/Nc1ccccc1)C(F)(F)Cl)c1ccccc1 (stereo not given)	> 100 µM
COc1ccc(Br)c(CN2CCc3ccccc32)c1OS(=O)(=O)c1ccc(C)cc1	> 100 µM
CCCCNS(=O)(=O)c1ccc(-c2ccc3c(c2)-c2ccc(S(=O)(=O)NCCCC)cc2S3(=O)=O)cc1	> 100 µM
O=C1CS/C(=N/S(=O)(=O)c2ccc(N3N=C4c5ccccc5CC4C3c3cccs3)cc2)N1C(=O)c1ccccc1 (stereo not given)	> 100 µM
Cc1cc(C)c2c(c1)C/C(=C\c1cccc(C)c1C(=O)O)C2=O	> 100 µM
CC(=O)CC(=O)N1CCSC1=S	> 10 µM
Cc1ccc(N=C/C=C(\Nc2ccc(C)cc2)c2ccc3ccccc3c2)cc1	13.1 µM
O=C1CC(c2ccsc2)n2cccc21 (stereo not given)	> 100 µM
O=[N+]([O-])c1ccc(N2N=C(c3c(O)ccc4ccccc34)CC2c2ccc(Cl)cc2)c([N+](=O)[O-])c1 (stereo not given)	> 100 µM
Cn1c2ccccc2n2c3ncccc3c(=O)cc12	> 100 µM
Cc1nn(C)c2ncnc(N/N=C/c3cccc(O)c3O)c12	2.19 µM
COc1c(C)c(C/C=C(\C)CCCC(C)CCCC(C)CCCC(C)C)c(OC)c2ccccc12 (stereo not given)	> 100 µM
OCCCCC#Cc1ccccc1C#Cc1cccnc1	90.4 µM
Oc1cccc2c(Br)ccnc12	21.6 µM
COC(=O)C(Cc1c[nH]c2ccccc12)NC(=O)C(Cc1c[nH]c2ccccc12)NC(=O)C(Cc1c[nH]c2ccccc12)NC(=O)C(Cc1c[nH]c2ccccc12)NC(=O)C(Cc1c[nH]c2ccccc12)NC(=O)C(Cc1c[nH]c2ccccc12)NC(=O)C(Cc1c[nH]c2ccccc12)NC(=O)OC(C)(C)C (stereo not given) (Boc-WWWWWWW-OMe; configuration not given here)	> 100 µM
CCOC(=O)C1CCC(=O)N1C(=O)c1cccc(Cl)c1 (stereo not given)	> 100 µM
Cc1cc(Cl)cc2c1NC(=O)C2(O)CC(=O)c1ccc(Br)cc1 (stereo not given)	> 100 µM
COc1ccc(-n2c(N)c(C#N)c(C#N)c2-c2ccco2)cc1	> 100 µM
CC1CCCC(C#N)(NOC2=NCCN2)C1 (stereo not given)	> 100 µM
O=C1OCC2=C1C(c1cccc(C(F)(F)F)c1)c1cc3c(cc1N2CCO)OCCO3 (stereo not given)	> 33.3 µM
CCOC(=O)c1sc2c(C(=O)OCC)n3cc(C)cc(C)c3c2c1O	> 100 µM
O=C1C=CC2(O[C@H](C3CCCCC3)[C@@H](C3CCCCC3)O2)C(SC(=O)c2ccccc2)C1 (stereo not given in full)	4.31 µM
Cc1c(Nc2nccc3cc(CN4CC[C@@H](O)C4)cnc23)cccc1-c1cccc(-c2nc3cc(CN4CC[C@@H](C(=O)O)C4)cc(C#N)c3o2)c1C	> 100 µM
CSc1nnc(SCc2nn3c(=O)cc(C)nc3s2)s1	> 100 µM
O=C1N2CCC[C@H]2CS1(=O)=O	28.5 µM
Nc1ccc2c(=O)cc(-c3ccc(Br)s3)[nH]c2n1	> 23.2 µM
COc1cc(/C=C/C(=O)CC(=O)/C=C/c2cc(OC)c(O)c(OC)c2)cc(OC)c1O	> 100 µM
COc1ccc(NC(=O)CC(=O)N/N=C(\C)c2cc3ccccc3oc2=O)cc1	> 100 µM
CCC1CCCCN1CC(C(C)=O)C(c1ccccc1)c1c(O)c2ccccc2oc1=O (stereo not given)	> 100 µM
Clc1ccc(-c2nn3c(COc4cccc(OCc5nnc6sc(-c7ccc(Cl)cc7)nn56)c4)nnc3s2)cc1	39.6 µM
CCCCCCCCCCCNC=O	> 100 µM
O=C1C(Cl)=C(Cl)C(=O)N1c1ccc(Cl)c(Cl)c1Cl	> 100 µM
COc1cc(S(=O)(=O)Nc2ccc(-c3csc(N4C(=O)C(Cl)C4c4ccccc4O)n3)cc2)ccc1Cl (stereo not given)	> 100 µM

----------
Item-by-item account of TGI
System: OVCAR-3 ovarian
Experiment: NCI tumour cell line growth inhibition, 48 h
measure_name: TGI

>>> df
                                    compound  measure_name  observed_measurement
 0                  Cc1nc2ccc(Cl)cc2c2c1CCO2           TGI              > 100 µM
 1               OCCCCC#Cc1ccccc1C#Cc1cccnc1           TGI              > 100 µM
 2  CC(C)OP(=O)(OC(C)C)C(C(C)C)N(C)C(N)=NC#N (stereo unspecified)           TGI              > 100 µM
 3  Cc1ccc(N2C(=O)/C(=C/c3ccc(N(CCC#N)CCC#N)cc3)N=C2COc2ccc(Cl)cc2Cl)cc1           TGI              > 100 µM
 4             NC(N)=NC(N)=Nc1ccc(C(=O)O)cc1           TGI              > 100 µM
 5  CCC1CCCCN1CC(C(C)=O)C(c1ccccc1)c1c(O)c2ccccc2oc1=O (stereo unspecified)           TGI              > 100 µM
 6            O=c1cc(-c2ccccc2)[nH]c2c1CCCC2           TGI               5.02 µM
 7  N#C/C(=C/N1CCN(C(=O)c2ccco2)C1=S)C(=O)Nc1ccc(Cl)cc1           TGI               > 50 µM
 8  O=C1C=C(N2CCN(c3ncccn3)CC2)C(=O)c2c(O)ccc(O)c21           TGI              > 100 µM
 9  Cc1cc2c(c(C(=O)NCC(=O)O)c1)Oc1c(cc(C)cc1C(=O)NCC(=O)O)S2           TGI              > 100 µM
10            C1CSC[C@H]2COC[C@@H](CSCCS1)S2           TGI              > 100 µM
11  CN1CCN(Cc2ccc(NC(=O)c3[nH]ncc3Nc3ncnc4[nH]ccc34)cc2)CC1           TGI              0.797 µM
12  CS(=O)(=O)c1ccc(COP(N)(=O)N(CCCl)CCCl)cc1 (stereo unspecified)           TGI              > 100 µM
13  O=C1CC(c2ccsc2)n2cccc21 (stereo unspecified)           TGI              > 100 µM
14  COc1c(OC)c(OC)c2c(=O)cc(-c3ccc(OC(C)C)cc3)oc2c1OC           TGI               44.6 µM
15  CCOC(=O)C1CCC(=O)N1C(=O)c1cccc(Cl)c1 (stereo unspecified)           TGI              > 100 µM
